# max activation listing for each entry below
Biological target: D(3) dopamine receptor (Homo sapiens)
Assay: qHTS of D3 Dopamine Receptor Agonist: qHTS; note: 0% is about no effect
Conditions: D3R DiscoveRx beta-arrestin cells, luminescence, 90 min; stronger effect = higher value
Hit rate of the full screen: of about 410,000 compounds, about 2,400 (0.59%) were called active. The sample holds actives, similar compounds and a random draw of the others, so the mix is not that of the screen. Where a SMILES comes first, the peptide text is derived from it. Bridges are numbered along the chain shown (N, C = ends). [ ]: non-standard residue; d: D form. The star is where a group is joined. X1 = CC[C@H](C)CCCCC(=O)*; Dab = NCC[C@H](N)C(=O)O
Number only, in %; omit the unit.

>>> reported_measurement("CCOCCn1c(C(C)C)nc2ccccc21")
-2.13
>>> reported_measurement("COc1cccc2c1cc1c(=O)n(CC(=O)N3CCN(c4ccccc4)CC3)nc(C)n12")
5.49
>>> reported_measurement("CC(C)=CCc1ccc(O)c(=O)cc1C(C)C")
-8.37
>>> reported_measurement("Cc1cnc(CN(C)C(=O)CC2C(=O)NCCN2Cc2cccc(F)c2F)[nH]1 (stereo not given)")
4.65
>>> reported_measurement("CC[C@H](C)CCCCC(=O)N[C@@H](CCN)C(=O)N[C@H](C(=O)N[C@@H](CCN)C(=O)N[C@H]1CCNC(=O)[C@H]([C@@H](C)O)NC(=O)[C@H](CCN)NC(=O)[C@H](CCN)NC(=O)[C@H](CC(C)C)NC(=O)[C@@H](CC(C)C)NC(=O)[C@H](CCN)NC1=O)[C@@H](C)O (X1-[Dab]T[Dab][Dab][Dab][dL]L[Dab][Dab]T; lactam 4-C)")
0.26

max activation reading for CCOCCn1c(-c2ccccc2)nc2ccccc21 : 65.4

max activation reading for COc1ccc(OC)c(-c2c(=O)n(OCc3ccccc3Br)c3ccccc3[n+]2[O-])c1 : -6.63

====

Target: D(3) dopamine receptor (Homo sapiens) (UniProt P35462)
Sequence (P35462 whole entry, looked up): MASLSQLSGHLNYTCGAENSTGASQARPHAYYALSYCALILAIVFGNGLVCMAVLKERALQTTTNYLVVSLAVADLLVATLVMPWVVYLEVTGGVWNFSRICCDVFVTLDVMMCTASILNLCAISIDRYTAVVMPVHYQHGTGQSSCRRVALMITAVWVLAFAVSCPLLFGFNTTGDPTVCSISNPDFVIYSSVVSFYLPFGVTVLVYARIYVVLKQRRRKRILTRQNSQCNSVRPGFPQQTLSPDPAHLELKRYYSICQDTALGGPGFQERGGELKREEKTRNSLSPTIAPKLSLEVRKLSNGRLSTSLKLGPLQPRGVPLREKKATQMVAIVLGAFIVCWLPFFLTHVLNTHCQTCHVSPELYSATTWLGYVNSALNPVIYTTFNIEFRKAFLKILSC
Assay: qHTS of D3 Dopamine Receptor Agonist: qHTS; note: 0% is about no effect
Settings: D3R DiscoveRx beta-arrestin cells, luminescence, 90 min; stronger effect = higher value
Hit rate of the full screen: of about 410,000 compounds, about 2,400 (0.59%) were called active. This is one part of a sample in which actives are shown more often than they occur.
property.name: max activation

>>> reported_measurement("O=C(Cn1nnc(-c2ccccc2)n1)N/N=C/c1ccc(-c2ccc(Cl)cc2)o1")
"34.9% (active)"
>>> reported_measurement("CN(C)CCCSc1ccccc1NC(=O)/C=C/c1ccccc1")
"-15.8% (inactive)"
>>> reported_measurement("Cc1ccc(NC(=O)CN(C)C(=O)Cn2nnc(-c3ccccc3)n2)cc1")
"5.42% (inactive)"
>>> reported_measurement("COC(=O)c1ccccc1NC(=O)c1cnn(-c2ccc(F)cc2)c1-n1cccc1")
"-7.92% (inactive)"
>>> reported_measurement("Fc1ccc2[nH]c3c(N4CCSCC4)ncnc3c2c1")
"42.3% (active)"

max activation reading for CCCC(=O)Nc1ccc2oc(-c3ccc(O)c(Br)c3)nc2c1 : 6.09% (inactive)

====

# max activation listing for each entry below
Target: D(3) dopamine receptor (Homo sapiens) (UniProt P35462)
Experiment: qHTS of D3 Dopamine Receptor Agonist: qHTS; note: 0% is about no effect
Conditions: D3R DiscoveRx beta-arrestin cells, luminescence, 90 min; stronger effect = higher value
Among all 410,000 compounds or so, about 2,400 (0.59%) were called active. For the sample, actives were picked, then their nearest neighbours and some compounds at random.
Number only, in %; omit the unit.

Would you please look over these solved cases?
>>> reported_measurement("COc1ccc(-c2noc(CCC(=O)N3CCN(c4cccc(C)c4)CC3)n2)cc1")
35.7
>>> reported_measurement("Cc1ccc(NC(=O)C2CCN(S(=O)(=O)c3cc(-c4noc(C)n4)ccc3C)CC2)c(C)c1")
-12.1

max activation reading for Cc1ccc(-c2nc(COC(=O)c3c(C)noc3C)cs2)cc1 : 32.5

====

Target: D(3) dopamine receptor (Homo sapiens)
Experiment: qHTS of D3 Dopamine Receptor Agonist: qHTS; note: 0% is about no effect
Conditions: D3R DiscoveRx beta-arrestin cells, luminescence, 90 min
About 2,400 (0.59%) of roughly 410,000 compounds were called active. No stated cut-off is given here; in the data, active means max activation above about 30%; inactive means the rest. Many of the other results were omitted from the sample, so actives are more common in it than they were.
One label from this list, please: 1.0 (active), 0.0 (inactive)

A selection of reference data follows.
>>> discrete_label("Cc1ccccc1NC(=O)c1c(NC(=O)c2ccccc2F)sc2c1CCC(C)C2 (stereo not given)")
0.0
>>> discrete_label("CCC(C)c1ccc(O)c(/C=N/O)c1 (stereo not given)")
0.0
>>> discrete_label("Cc1oc2ccc(O)c(CN3CCCCC3)c2c1C(=O)Nc1cccc(C(F)(F)F)c1")
0.0
>>> discrete_label("CCCCC(NS(=O)(=O)c1ccc(C)cc1)C(=O)Oc1ccc2c3c(c(=O)oc2c1)CCC3 (stereo not given)")
1.0
>>> discrete_label("Cc1ccccc1CNC(=O)c1cccc(NC(=O)c2nsc3ccccc23)c1")
0.0
>>> discrete_label("Cc1ccsc1C1C(C#N)=C(N)OC2=C1C(=O)CC(C)C2 (stereo not given)")
0.0
>>> discrete_label("Cc1cc2nc(-c3ccc(NC(=O)c4cccnc4)cc3)oc2cc1C")
1.0
>>> discrete_label("Cn1nnc2c(N3CCN(c4ccccc4)CC3)ncnc21")
0.0

// param item: Cc1cc2nc(-c3ccc(NC(=O)c4cc5ccccc5o4)cc3)oc2cc1C ; yields the recorded call
0.0

// param item: CCOC(=O)CSC1=C(C#N)C(c2sccc2C)CC(=O)N1 (stereo not given) ; yields the recorded call
1.0

====

Target: D(3) dopamine receptor (Homo sapiens) (UniProt P35462)
Experiment: qHTS of D3 Dopamine Receptor Agonist: qHTS; note: 0% is about no effect
Details: D3R DiscoveRx beta-arrestin cells, luminescence, 90 min
Screen size: about 410,000 compounds; about 2,400 (0.59%) were called active. Rule as the data show it: active = max activation above about 30%; inactive = the rest. The list comes from a sample in which actives are over-represented; it also holds close analogues and randomly drawn compounds.
One label from this list, please: active, inactive

A selection of reference data follows.
>>> discrete_label("OC(COc1cccc2ccccc12)CN1CCN(c2ccccn2)CC1 (stereo not drawn)")
"active"
>>> discrete_label("CCc1ccc(NC(=O)CN2CCC(C(=O)c3ccc(OC)cc3)CC2)cc1")
"inactive"
>>> discrete_label("CCCN(CCc1ccccc1)C1CCc2c(O)cccc2C1 (stereo not drawn)")
"active"
>>> discrete_label("CC(C)C1C2=C(CC(C)(C)CC2=O)ON1c1ccccc1 (stereo not drawn)")
"inactive"
>>> discrete_label("CC(C)c1ccc(OCC(O)CN2CCN(c3ccccn3)CC2)cc1 (stereo not drawn)")
"active"

// param item: Cc1cccc(OCC(O)CN2CCN(CCN3C(=O)c4cccc5cccc(c45)C3=O)CC2)c1C (stereo not drawn) ; yields the recorded call
inactive

// param item: COc1ccc(CCn2ccc(O)c(Cc3ccc(Cl)cc3Cl)c2=O)cc1OC ; yields the recorded call
inactive

// param item: COc1ccc(S(=O)(=O)NCc2cccn2Cc2cccc(C)c2)cc1Cl ; yields the recorded call
inactive

// param item: Cc1ccccc1OCC(O)CN1CCN(c2ccccn2)CC1 (stereo not drawn) ; yields the recorded call
active

// param item: O=S(=O)(c1ccc(OCC(O)CN2CCN(c3ccccc3Cl)CC2)cc1)N1CCOCC1 (stereo not drawn) ; yields the recorded call
inactive

// param item: COC(=O)[C@@H]1CC2=CC(=O)CC[C@]2(C)[C@@]23O[C@@H]2C[C@@]2(C)[C@@H](CC[C@@]24CCC(=O)O4)[C@H]13 ; yields the recorded call
inactive

// param item: CCS(=O)(=O)N1CCC(N2CCN(c3ccccc3)CC2)CC1 ; yields the recorded call
active

// param item: O=C(CSc1ncc(S(=O)(=O)c2ccc(Br)cc2)c(=O)[nH]1)Nc1ccc2c(c1)OCCO2 ; yields the recorded call
inactive

====

# max activation listing for each entry below
Target: D(3) dopamine receptor (Homo sapiens)
Assay: qHTS of D3 Dopamine Receptor Agonist: qHTS; note: 0% is about no effect
Details: D3R DiscoveRx beta-arrestin cells, luminescence, 90 min; stronger effect = higher value
The campaign covered roughly 410,000 compounds. About 2,400 (0.59%) were called active. The list comes from a sample in which actives are over-represented; it also holds close analogues and randomly drawn compounds.
Number only, in %; omit the unit.

>>> reported_measurement("C[C@H](NC(=O)c1nc[nH]c1C(=O)NCC(=O)OC(C)(C)C)c1ccccc1")
-13.3

max activation reading for Cc1cc(C)cc(NC(=O)c2cnc3sc(N4CCCC4)nn3c2=O)c1 : 19.3

max activation reading for Cc1cccc(NC(=O)c2nc[nH]c2C(=O)NCC(=O)OCc2ccccc2)c1 : 74.4

max activation reading for COc1ccccc1N1CCN(c2ncnc3onc(-c4ccc(F)cc4)c23)CC1 : -8.86

max activation reading for COc1cccc(CNC(=O)C2CCC(CNS(=O)(=O)c3cccs3)CC2)c1 (stereo not given) : 2.62

max activation reading for O=C(Nc1cc(Br)ccc1F)c1nc[nH]c1C(=O)NCc1ccccc1 : -7.03

max activation reading for COC(=O)c1ccc(NC(=O)c2cc(S(=O)(=O)N3CCC(C)CC3)cn2C)cc1 : -4.24

max activation reading for CCc1ccccc1N1C(=O)CN(S(=O)(=O)CC)CC1(C)C(=O)NC1CCCCC1 (stereo not given) : -18.4
